system: AML12 mouse hepatocytes, BODIPY lipid droplet imaging; test: inhibitors of hepatocyte lipid droplet formation, SAR follow-up, imaging, AML12 mouse hepatocytes, BODIPY staining (AID 493092); conditions: cells fed 100 µM oleate overnight
Activity calls are given as the source filed them.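 The calls were made as follows: active = averaged IC50 for reducing per-cell lipid droplet stain intensity under a set limit; inactive = the rest.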
API: response.call in label 1 for active, label 0 for inactive

Worked examples, 4 compounds total:
compound=CCN(CC)S(=O)(=O)c1ccc(C(=O)NCC(=O)NCCCc2ccccc2)cc1 labelclass="label 0"
compound=Cc1ccccc1C(=O)NCC(=O)NCCC(c1ccccc1)c1ccccc1 labelclass="label 0"
compound="CC(OC(=O)c1ccc2c(c1)OCO2)C(=O)Nc1nc(-c2cccc([N+](=O)[O-])c2)cs1 (stereo not given)" labelclass="label 0"
compound="CCOC(=O)c1cc(CC)sc1NC(=O)C1CC(=O)NN1Cc1ccccc1 (stereo not given)" labelclass="label 1"

Then there is this compound:
Request: Could you kindly confirm the outcome this assay logged for CCOc1ccc(CCNC(=O)c2cc3sc(Cl)cc3n2C)cc1OCC ?
Response: label 1
